Measured values drawn from PubChem BioAssay (NCI) for this set.

- Tested on: M14 melanoma
- assay overview: NCI tumour cell line growth inhibition, 48 h
measured endpoint: TGI

Take a look at these entries with their results.
molecule: COc1ccccc1Nc1ncc(-c2ccccc2)o1
TGI: > 25 µM
--
molecule: C=CCN1CCC(O)(c2cc(C(=O)OCC)[nH]c2-c2cc(C)no2)C1 (stereo unspecified)
TGI: > 100 µM
--
molecule: CCCCCCCN=C(N)c1ccc(N2CCN(c3ccc(C(N)=NCCCCCCC)cc3)CC2)cc1
TGI: > 100 µM

Consider the molecule `COc1ccc(/C=C2\c3cc(OC)c(OC)cc3CCN2C(=O)c2ccccc2)cc1OC` and give its measured TGI. > 100 µM

Consider the molecule `CCOC(=O)c1ccc(N=Nc2cc(C(=O)OCC)ccc2O)cc1` and give its measured TGI. > 100 µM

Consider the molecule COC(=O)C1=C(C(=O)OC)C2=S(SC3=C2CCCC3)S1 (stereo unspecified) and give its measured TGI. > 100 µM

----------
- System: UACC-257 melanoma
- assay overview: NCI tumour cell line growth inhibition, 48 h
TGI listing for selected compounds.

substance smiles: Cc1cc2c(cc1C(=O)c1ccc(N)cc1)OCO2
TGI: > 100 µM

substance smiles: COc1ccc2c(C(=O)c3cn(CCN4CCOCC4)c4ccccc34)cccc2c1
TGI: > 100 µM

substance smiles: CC(C)=CCc1cc2c(cc1O)OC[C@H]1c3cc4c(cc3O[C@@H]21)OCO4
TGI: > 100 µM

Next up:
Consider the compound `COC(=O)C1=C(O)c2ccc(Cl)cc2S(=O)(=O)N1C` and give its measured TGI. > 100 µM

----------
TGI listing for selected molecules.
- System: TK-10 renal
- assay overview: NCI tumour cell line growth inhibition, 48 h

Take a look at these entries with their results.
molecule: CCSC1=N/C(=C\c2ccc(N(C)C)cc2)C(Cl)=N1
assayed system: TK-10 renal
TGI: > 100 µM
//
molecule: CC(=O)c1c(O)ccc2c1c1c(n2C)C(=O)c2ccccc2C1=O
assayed system: TK-10 renal
TGI: > 28.1 µM
//
molecule: COc1cc2c3c(c1OC)-c1cc4c(cc1CC3(C#N)N(C(=O)c1ccccc1)CC2)OCO4 (stereo unspecified)
assayed system: TK-10 renal
TGI: 71 µM

Next up:
Missing value: TGI, TK-10 renal, entry `C[Si](C)(C)/C(Br)=C\CCN1C(=O)CCC1=O` . Fill in? > 100 µM

----------
- Tested on: UO-31 renal
- assay overview: NCI tumour cell line growth inhibition, 48 h
GI50 listing for selected compounds.

Take a look at these entries with their results.
compound: COc1cccc2c1C(=O)c1c(O)c3c(c(O)c1C2=O)C[C@@](O)(/C(C)=N/NC(=O)c1ccc(Cl)cc1)C[C@@H]3OC1CC(N)C(O)C(C)O1 (stereo partly drawn)
readout value: 488 nM
--
compound: Cn1c(=O)c(Oc2ccc(F)cc2)cc2cnc(NC3CCOCC3)nc21
readout value: > 10500 nM

Next up:
Consider the compound `CCCCCCCN=C(N)c1ccc(N2CCN(c3ccc(C(N)=NCCCCCCC)cc3)CC2)cc1` and give its measured GI50. 781 nM

----------
- System: OVCAR-4 ovarian
- assay overview: NCI tumour cell line growth inhibition, 48 h; in the data active means GI50 below about 0.43 µM; inactive means the rest
Just give me one of these, please: active, inactive

Please review the entries below; each comes with its answer.
substance smiles: Cc1ccc(Nc2oc(-c3ccccc3)nc2[P+](c2ccccc2)(c2ccccc2)c2ccccc2)cc1
assayed system: OVCAR-4 ovarian
class label: active
//
substance smiles: COc1ccc(-c2cc(/C=C/C(=O)c3ccc(OC)c(OC)c3)[nH]n2)cc1
assayed system: OVCAR-4 ovarian
class label: inactive

Field: outcome | Entry: `Cn1c(=O)c(Oc2ccc(F)cc2)cc2cnc(NC3CCOCC3)nc21` inactive
